B1: Azoarcus group I ribozyme (parent)
chain: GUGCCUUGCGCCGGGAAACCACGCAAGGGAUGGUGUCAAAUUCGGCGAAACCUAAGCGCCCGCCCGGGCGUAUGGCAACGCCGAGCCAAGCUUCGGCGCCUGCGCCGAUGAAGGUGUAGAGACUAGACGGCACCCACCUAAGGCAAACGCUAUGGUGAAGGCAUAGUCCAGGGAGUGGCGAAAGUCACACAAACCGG

Variants of: B1
Assay: reverse-splicing fitness (ratio to wild type); higher = more active; in vitro selection; Mg2+ level not given
recorded.endpoint: reverse-splicing fitness

C82U A111U A145C C150G C169A U176A : 0.00853
C82G A111U A120U A145U C150U C169A U176G : 0.00252
A111G A120C C169A U176C : 0.0167
C82A A120C A145G U176A : 0.0426
C82A A111U A120U A145C C169U U176G : 0.00193
C82U A111G A145U C150A U176A : 0.0234
C82A A111C C150U C169A U176C : 0.0125
C82G A111C A120U A145U C150A C169G U176A : 0.00297
C82U A111U A120C A145U C150A : 0.00878
C82A A111G A120G C150A C169A U176G : 0.00588
A111G A120U A145C C150G C169G U176G : 0.00213
